Entries annotated with measured cell viability/%
# Tested on: P388 mouse leukemia cells
# Test Conditions: 92 h
Where a SMILES comes first, the peptide text is derived from it. [ ]: non-standard residue; d: D form. The star is where a group is joined. NHCH2CH2OH = OCCN*; For = O=C*

Past entries and their recorded results:
1) CNC(=O)C[C@@H](NC(=O)[C@@H](NC(=O)[C@@H](CC(C)C)NC(=O)[C@H](C)NC(=O)[C@H](NC(=O)[C@H](C)NC(=O)CNC(=O)[C@@H](NC=O)C(C)C)C(C)C)C(C)C)C(=O)N[C@@H](Cc1c[nH]c2ccccc12)C(=O)N[C@H](CC(C)C)C(=O)N[C@@H](Cc1c[nH]c2ccccc12)C(=O)N[C@H](CC(C)C)C(=O)N[C@@H](Cc1c[nH]c2ccccc12)C(=O)N[C@@H](C(=O)N[C@@H](Cc1c[nH]c2ccccc12)C(=O)NCCO)C(C)C [compound 9229] (For-VGA[dV]A[dL]V[dD](NHMe)W[dL]W[dL]W[dV]W-NHCH2CH2OH) ... 100.0%
2) CC(C)C[C@@H](NC(=O)[C@@H](NC(=O)[C@H](NC(=O)[C@H](C)NC(=O)[C@H](NC(=O)[C@H](C)NC(=O)CNC(=O)[C@@H](NC=O)C(C)C)[C@H](C)O)C(C)C)C(C)C)C(=O)N[C@@H](Cc1c[nH]c2ccccc12)C(=O)N[C@@H](C(=O)N[C@@H](Cc1c[nH]c2ccccc12)C(=O)N[C@@H](C(=O)N[C@@H](Cc1c[nH]c2ccccc12)C(=O)N[C@@H](C(=O)N[C@@H](Cc1c[nH]c2ccccc12)C(=O)NCCO)C(C)C)C(C)C)C(C)C [compound 3631] (For-VGA[dT]A[dV]V[dL]W[dV]W[dV]W[dV]W-NHCH2CH2OH) ... 100.0%
3) CNC(=O)C[C@@H](NC(=O)[C@H](Cc1c[nH]c2ccccc12)NC(=O)[C@@H](CC(C)C)NC(=O)[C@@H](NC(=O)[C@@H](CC(C)C)NC(=O)[C@H](C)NC(=O)[C@H](NC(=O)[C@H](C)NC(=O)CNC(=O)[C@@H](NC=O)C(C)C)C(C)C)C(C)C)C(=O)N[C@@H](Cc1c[nH]c2ccccc12)C(=O)N[C@@H](C(=O)N[C@@H](Cc1c[nH]c2ccccc12)C(=O)N[C@@H](C(=O)N[C@@H](Cc1c[nH]c2ccccc12)C(=O)NCCO)C(C)C)C(C)C [compound 5380] (For-VGA[dV]A[dL]V[dL]W[dD](NHMe)W[dV]W[dV]W-NHCH2CH2OH) ... 100.0%
4) CNC(=O)C[C@@H](NC(=O)[C@@H](NC(=O)[C@H](NC(=O)[C@H](C)NC(=O)[C@H](NC(=O)[C@H](C)NC(=O)CNC(=O)[C@@H](NC=O)C(C)C)C(C)C)C(C)C)C(C)C)C(=O)N[C@@H](Cc1c[nH]c2ccccc12)C(=O)N[C@@H](C(=O)N[C@@H](Cc1c[nH]c2ccccc12)C(=O)N[C@H](CC(C)C)C(=O)N[C@@H](Cc1c[nH]c2ccccc12)C(=O)N[C@H](CC(C)C)C(=O)N[C@@H](Cc1c[nH]c2ccccc12)C(=O)NCCO)C(C)C [compound 2898] (For-VGA[dV]A[dV]V[dD](NHMe)W[dV]W[dL]W[dL]W-NHCH2CH2OH) ... 100.0%
5) CC(C)C[C@@H](NC(=O)[C@H](C)NC(=O)[C@H](NC(=O)[C@H](C)NC(=O)CNC(=O)[C@@H](NC=O)C(C)C)C(C)C)C(=O)N[C@H](C(=O)N[C@@H](C(=O)N[C@@H](Cc1c[nH]c2ccccc12)C(=O)N[C@@H](C(=O)N[C@@H](Cc1c[nH]c2ccccc12)C(=O)N[C@H](CC(C)C)C(=O)N[C@@H](Cc1c[nH]c2ccccc12)C(=O)N[C@H](CC(C)C)C(=O)N[C@@H](Cc1c[nH]c2ccccc12)C(=O)NCCO)C(C)C)[C@H](C)O)C(C)C [compound 11433] (For-VGA[dV]A[dL]V[dT]W[dV]W[dL]W[dL]W-NHCH2CH2OH) ... 51.1%

Request: // returns reported cell viability/% for input CC(C)C[C@@H](NC(=O)[C@H](Cc1c[nH]c2ccccc12)NC(=O)[C@H](NC(=O)[C@H](Cc1c[nH]c2ccccc12)NC(=O)[C@@H](CC(C)C)NC(=O)[C@@H](NC(=O)[C@H](NC(=O)[C@H](C)NC(=O)[C@H](NC(=O)[C@H](C)NC(=O)CNC(=O)[C@@H](NC=O)C(C)C)[C@H](C)O)C(C)C)C(C)C)C(C)C)C(=O)N[C@@H](Cc1c[nH]c2ccccc12)C(=O)N[C@@H](C(=O)N[C@@H](Cc1c[nH]c2ccccc12)C(=O)NCCO)C(C)C [compound 182] (For-VGA[dT]A[dV]V[dL]W[dV]W[dL]W[dV]W-NHCH2CH2OH)
Response: 100.0%

Request: Please answer likewise for CC(C)C[C@@H](NC(=O)[C@H](C)NC(=O)CNC(=O)[C@@H](NC=O)C(C)C)C(=O)N[C@@H](C)C(=O)N[C@H](CC(C)C)C(=O)N[C@H](C(=O)N[C@H](CC(C)C)C(=O)N[C@@H](Cc1c[nH]c2ccccc12)C(=O)N[C@@H](C(=O)N[C@@H](Cc1c[nH]c2ccccc12)C(=O)N[C@@H](C(=O)N[C@@H](Cc1c[nH]c2ccccc12)C(=O)N[C@@H](C(=O)N[C@@H](Cc1c[nH]c2ccccc12)C(=O)NCCO)C(C)C)C(C)C)[C@H](C)O)C(C)C [compound 5679] (For-VGA[dL]A[dL]V[dL]W[dT]W[dV]W[dV]W-NHCH2CH2OH)
Response: 90.5%

Request: Please answer likewise for CC(C)C[C@@H](NC(=O)[C@H](C)NC(=O)[C@H](NC(=O)[C@H](C)NC(=O)CNC(=O)[C@@H](NC=O)C(C)C)C(C)C)C(=O)N[C@H](C(=O)N[C@@H](C(=O)N[C@@H](Cc1c[nH]c2ccccc12)C(=O)N[C@@H](C(=O)N[C@@H](Cc1c[nH]c2ccccc12)C(=O)N[C@H](CC(C)C)C(=O)N[C@@H](Cc1c[nH]c2ccccc12)C(=O)N[C@@H](C(=O)N[C@@H](Cc1c[nH]c2ccccc12)C(=O)NCCO)C(C)C)C(C)C)[C@H](C)O)C(C)C [compound 9633] (For-VGA[dV]A[dL]V[dT]W[dV]W[dL]W[dV]W-NHCH2CH2OH)
Response: 100.0%

----------
Entries annotated with measured cell viability/%
# Tested on: P388 mouse leukemia cells
# Test Conditions: 92 h
Where a SMILES comes first, the peptide text is derived from it. [ ]: non-standard residue; d: D form. The star is where a group is joined. NHCH2CH2OH = OCCN*; For = O=C*
# number only, unit % dropped from output

1) CC(C)C[C@@H](NC(=O)[C@H](C)NC(=O)[C@H](NC(=O)[C@H](C)NC(=O)CNC(=O)[C@@H](NC=O)C(C)C)[C@H](C)O)C(=O)N[C@H](C(=O)N[C@H](CC(C)C)C(=O)N[C@@H](Cc1c[nH]c2ccccc12)C(=O)N[C@H](CC(C)C)C(=O)N[C@@H](Cc1c[nH]c2ccccc12)C(=O)N[C@@H](C(=O)N[C@@H](Cc1c[nH]c2ccccc12)C(=O)N[C@@H](C(=O)N[C@@H](Cc1c[nH]c2ccccc12)C(=O)NCCO)C(C)C)C(C)C)C(C)C [compound 9125] (For-VGA[dT]A[dL]V[dL]W[dL]W[dV]W[dV]W-NHCH2CH2OH) ... 44.2

Now let's try a different one.
Request: // returns reported cell viability/% for input CNC(=O)C[C@@H](NC(=O)[C@H](Cc1c[nH]c2ccccc12)NC(=O)[C@@H](CC(C)C)NC(=O)[C@H](Cc1c[nH]c2ccccc12)NC(=O)[C@H](NC(=O)[C@H](Cc1c[nH]c2ccccc12)NC(=O)[C@@H](CC(C)C)NC(=O)[C@@H](NC(=O)[C@H](NC(=O)[C@H](C)NC(=O)[C@H](NC(=O)[C@H](C)NC(=O)CNC(=O)[C@@H](NC=O)C(C)C)C(C)C)C(C)C)C(C)C)C(C)C)C(=O)N[C@@H](Cc1c[nH]c2ccccc12)C(=O)NCCO [compound 5538] (For-VGA[dV]A[dV]V[dL]W[dV]W[dL]W[dD](NHMe)W-NHCH2CH2OH)
Response: 100.0

----------
# System: Listeria monocytogenes 10403S
# Test Conditions: L. monocytogenes
Where a SMILES comes first, the peptide text is derived from it. [ ]: non-standard residue; d: D form. The star is where a group is joined. NHCH2CH2OH = OCCN*; For = O=C*
Reported Metric: antibacterial activity/MIC (µg/mL)
# number only, unit µg/mL dropped from output

Past entries and their recorded results:
1) CC(C)C[C@@H](NC(=O)[C@H](Cc1c[nH]c2ccccc12)NC(=O)[C@H](NC(=O)[C@@H](NC(=O)[C@H](NC(=O)[C@H](C)NC(=O)[C@H](NC(=O)[C@H](C)NC(=O)CNC(=O)[C@@H](NC=O)C(C)C)C(C)C)C(C)C)C(C)C)C(C)C)C(=O)N[C@@H](Cc1c[nH]c2ccccc12)C(=O)N[C@@H](C(=O)N[C@@H](Cc1c[nH]c2ccccc12)C(=O)N[C@@H](C(=O)N[C@@H](Cc1c[nH]c2ccccc12)C(=O)NCCO)C(C)C)C(C)C [B01] (For-VGA[dV]A[dV]V[dV]W[dL]W[dV]W[dV]W-NHCH2CH2OH) ... 8
2) CC(C)C[C@@H](NC(=O)[C@H](C)NC(=O)CNC(=O)[C@@H](NC=O)C(C)C)C(=O)N[C@@H](C)C(=O)N[C@H](CC(C)C)C(=O)N[C@H](C(=O)N[C@H](CC(C)C)C(=O)N[C@@H](Cc1c[nH]c2ccccc12)C(=O)N[C@H](CC(C)C)C(=O)N[C@@H](Cc1c[nH]c2ccccc12)C(=O)N[C@@H](C(=O)N[C@@H](Cc1c[nH]c2ccccc12)C(=O)N[C@@H](C(=O)N[C@@H](Cc1c[nH]c2ccccc12)C(=O)NCCO)C(C)C)[C@H](C)O)C(C)C [B11] (For-VGA[dL]A[dL]V[dL]W[dL]W[dT]W[dV]W-NHCH2CH2OH) ... 4

Request: // returns reported antibacterial activity/MIC for input CC(C)C[C@@H](NC(=O)[C@H](C)NC(=O)CNC(=O)[C@@H](NC=O)C(C)C)C(=O)N[C@@H](C)C(=O)N[C@@H](C(=O)N[C@H](C(=O)N[C@@H](C(=O)N[C@@H](Cc1c[nH]c2ccccc12)C(=O)N[C@H](CC(C)C)C(=O)N[C@@H](Cc1c[nH]c2ccccc12)C(=O)N[C@H](CC(C)C)C(=O)N[C@@H](Cc1c[nH]c2ccccc12)C(=O)N[C@@H](C(=O)N[C@@H](Cc1c[nH]c2ccccc12)C(=O)NCCO)C(C)C)[C@H](C)O)C(C)C)C(C)C [B12] (For-VGA[dL]A[dV]V[dT]W[dL]W[dL]W[dV]W-NHCH2CH2OH)
Response: 4

Request: Please answer likewise for CC(C)C[C@@H](NC(=O)[C@H](Cc1c[nH]c2ccccc12)NC(=O)[C@@H](CC(C)C)NC(=O)[C@H](Cc1c[nH]c2ccccc12)NC(=O)[C@@H](CC(C)C)NC(=O)[C@H](Cc1c[nH]c2ccccc12)NC(=O)[C@H](NC(=O)[C@@H](NC(=O)[C@H](NC(=O)[C@H](C)NC(=O)[C@H](NC(=O)[C@H](C)NC(=O)CNC(=O)[C@@H](NC=O)C(C)C)C(C)C)C(C)C)C(C)C)C(C)C)C(=O)N[C@@H](Cc1c[nH]c2ccccc12)C(=O)NCCO [A1] (For-VGA[dV]A[dV]V[dV]W[dL]W[dL]W[dL]W-NHCH2CH2OH)
Response: 2

Request: Please answer likewise for CC(C)C[C@@H](NC(=O)[C@H](C)NC(=O)CNC(=O)[C@@H](NC=O)C(C)C)C(=O)N[C@@H](C)C(=O)N[C@@H](C(=O)N[C@H](C(=O)N[C@@H](C(=O)N[C@@H](Cc1c[nH]c2ccccc12)C(=O)N[C@H](CC(C)C)C(=O)N[C@@H](Cc1c[nH]c2ccccc12)C(=O)N[C@H](CC(C)C)C(=O)N[C@@H](Cc1c[nH]c2ccccc12)C(=O)N[C@H](CC(C)C)C(=O)N[C@@H](Cc1c[nH]c2ccccc12)C(=O)NCCO)[C@H](C)O)C(C)C)C(C)C [B13] (For-VGA[dL]A[dV]V[dT]W[dL]W[dL]W[dL]W-NHCH2CH2OH)
Response: 2

Request: Please answer likewise for CC(C)C[C@@H](NC(=O)[C@H](C)NC(=O)CNC(=O)[C@@H](NC=O)C(C)C)C(=O)N[C@@H](C)C(=O)N[C@@H](C(=O)N[C@H](C(=O)N[C@@H](C(=O)N[C@@H](Cc1c[nH]c2ccccc12)C(=O)N[C@H](CC(C)C)C(=O)N[C@@H](Cc1c[nH]c2ccccc12)C(=O)N[C@H](CC(C)C)C(=O)N[C@@H](Cc1c[nH]c2ccccc12)C(=O)N[C@H](CC(C)C)C(=O)N[C@@H](Cc1c[nH]c2ccccc12)C(=O)NCCO)C(C)C)C(C)C)C(C)C [compound 1, Gramicidin A] (For-VGA[dL]A[dV]V[dV]W[dL]W[dL]W[dL]W-NHCH2CH2OH)
Response: 8

Request: Please answer likewise for CC(C)C[C@@H](NC(=O)[C@H](C)NC(=O)CNC(=O)[C@@H](NC=O)C(C)C)C(=O)N[C@@H](C)C(=O)N[C@@H](C(=O)N[C@H](C(=O)N[C@@H](C(=O)N[C@@H](Cc1c[nH]c2ccccc12)C(=O)N[C@@H](C(=O)N[C@@H](Cc1c[nH]c2ccccc12)C(=O)N[C@@H](C(=O)N[C@@H](Cc1c[nH]c2ccccc12)C(=O)N[C@@H](C(=O)N[C@@H](Cc1c[nH]c2ccccc12)C(=O)NCCO)C(C)C)C(C)C)C(C)C)C(C)C)C(C)C)C(C)C [B03] (For-VGA[dL]A[dV]V[dV]W[dV]W[dV]W[dV]W-NHCH2CH2OH)
Response: 8
